# assay.name: Pharmacokinetics: concentrations in mouse plasma and liver
# Format: in vivo
# reported.conditions: male, C57BL/6, mouse, plasma, ip, 25 mg/kg, mouse plasma, IP 25mg/kg, 1h, mean of 3 mice; read-out: Concentration in mouse plasma, MEAN
readout: concentration at 1 h

concentration at 1 h measured on C=C(CN1CCOCC1)C(=O)NC[C@@H](NC(=O)[C@H](Cc1nc2ccc(C(C)C)cc2s1)NC(=O)CC)C1CCCCC1 = 1830 ng/mL

concentration at 1 h measured on C=C(CN(C)C)C(=O)NC[C@@H](NC(=O)[C@H](Cc1nc2ccc(C(C)C)cc2s1)NC(=O)CC)C1CCCCC1 = 1740 ng/mL

* * *

# assay.name: Cell viability assay (WST-8), U2OS
# Assay type: cell-based, human
# reported.conditions: human, U2OS cells, conc 10, 72 h, replicates; read-out: cell viability relative to control
Give measured viability at 72 h for each item. Keep answers brief.
Give the number; % is assumed, so skip it.

viability at 72 h measured on NS(=O)(=O)OC[C@@H]1C[C@@H](n2ccc3c(N[C@H]4CCc5ccccc54)ncnc32)C[C@@H]1O [MLN4924] = 108

viability at 72 h measured on C=C(CN1CCOCC1)C(=O)NC[C@H](NC(=O)[C@@H](Cc1nc2ccc(C(C)C)cc2s1)NC(=O)CC)C1CCCCC1 [DI-1548DD] = 90.3

* * *

# assay.name: Cell viability assay (WST-8), KYSE70
# Assay type: cell-based, human
# reported.conditions: human, KYSE70 cells, conc 1000, 72 h, replicates; read-out: cell viability relative to control
readout: viability at 72 h (%)
Give the number; % is assumed, so skip it.

viability at 72 h measured on NS(=O)(=O)OC[C@@H]1C[C@@H](n2ccc3c(N[C@H]4CCc5ccccc54)ncnc32)C[C@@H]1O [MLN4924] = 31

* * *

Give measured viability at 72 h for each item. Keep answers brief.
# assay.name: Cell viability assay (WST-8), KYSE70
# Format: cell-based, human
# reported.conditions: human, KYSE70 cells, conc 300, 72 h, replicates; read-out: cell viability relative to control
# Method: Cell viability assay was performed as previously described. The effect of DCN1 inhibitors on cell growth was evaluated by a WST-8 [2-(2-methoxy-4-nitrophenyl)-3-(4-nitrophenyl)-5-(2,4-disulfophenyl)-2H-tetrazolium, monosodium salt assay (Dojindo Molecular Technologies, Inc). […] At the end of incubation, WST-8 dye (20 μL) was added to each well and incubated for 1–3 h, then the absorbance was measured in a microplate reader (Molecular Devices) at 450 nm. […]
Phrase the answer as number then unit, nothing more needed.

viability at 72 h measured on C=C(CN1CCOCC1)C(=O)NC[C@H](NC(=O)[C@@H](Cc1nc2ccc(C(C)C)cc2s1)NC(=O)CC)C1CCCCC1 [DI-1548DD] = 88%

viability at 72 h measured on NS(=O)(=O)OC[C@@H]1C[C@@H](n2ccc3c(N[C@H]4CCc5ccccc54)ncnc32)C[C@@H]1O = 41.9%

viability at 72 h measured on C=C(CN1CCOCC1)C(=O)NC[C@@H](NC(=O)[C@H](Cc1nc2ccc(C(C)C)cc2s1)NC(=O)CC)C1CCCCC1 = 94.1%

* * *

# assay.name: Pharmacokinetics: concentrations in mouse plasma and liver
# Format: in vivo
# reported.conditions: male, C57BL/6, mouse, liver, ip, 25 mg/kg, mouse liver, IP 25mg/kg, 3h, single animals; read-out: Concentration in mouse liver, individual mice 1, 2, 3
# Experimental: Supplementary Table 2A. Concentrations of DI-1548 in mouse Plasma and liver after the C57BL/6 male mice were treated with a single dose of DI-1548 at 25 mg/kg via intraperitoneal (IP) injection. BLQ: below the limit of quantification. Time point (h) Plasma (ng /mL) Liver (ng /g) Supplementary Table 2B. Concentrations of DI-1859 in mouse Plasma and liver after the C57BL/6 male mice were treated with a single dose of DI-1859 at 25 mg/kg via intraperitoneal (IP) injection. BLQ: […]
readout: concentration at 3 h
Phrase the answer as number then unit, nothing more needed.

concentration at 3 h measured on C=C(CN1CCOCC1)C(=O)NC[C@@H](NC(=O)[C@H](Cc1nc2ccc(C(C)C)cc2s1)NC(=O)CC)C1CCCCC1 = 3.8 ng/g
